# measuredOn: T1, biotinylated goat anti-human kappa light chain
# T1 construct: positive control of the ELISA
# assayOverview: ELISA, positive control; further: test concentration or dose not given here
resultType: optical density (OD)
Report the figure in OD without appending any unit label.

A selection of reference data follows.
binder	resultUnit	optical density
367_B11 (antibody, V domains shown, Group I) VH: EVQLLESGGGLVQPGGSLRLSCAASGFTFSDYSMHWVRQAPGKGLEWVANINYNSGYTSYADSVKGRFTISRDNSKNTLYLQMNSLRAEDTAVYYCARAANWHDTALDYWGQGTLVTVSS VL: DIQMTQSPSSLSASVGDRVTITCRASQSILSYLNWYQQKPGKAPKLVIYAATSRASGVPSRFSGSGSGTDFTLTISSLQPEDFATYYCQQSYSTPLTFGGGTKVEIK	OD	3.6
366_A04 (antibody, V domains shown, Group I) VH: EVQLLESGGGLVQPGGSLRLSCAASGFTFSSYGMNWVRQAPGKGLEWVAGINYNGGYTSYADSVKGRFTISRDNSKNTLYLQMNSLRAEDTAVYYCARAANWHDTALDYWGQGTLVTVSS VL: DIQMTQSPSSLSASVGDRVTITCRASQSILTYLNWYQQKPGKAPKLVIYAATSLASGVPSRFSGSGSGTDFTLTISSLQPEDFATYYCQQSDDSPLTFGGGTKVEIK	OD	3.4
367_C09 (antibody, V domains shown, Group I) VH: EVQLLESGGGLVQPGGSLRLSCAASGFTFDSYGMHWVRQAPGKGLEWVASINYNGGYTSYADSVKGRFTISRDNSKNTLYLQMNSLRAEDTAVYYCARAANWHDTHLDYWGQGTLVTVSS VL: DIQMTQSPSSLSASVGDRVTITCRASQSILSYVNWYQQKPGKAPKLVIYAATSRHSGVPSRFSGSGSGTDFTLTISSLQPEDFATYYCQQSYNTPLTFGGGTKVEIK	OD	3.44
374_B07 (antibody, V domains shown, Group II) VH: EVQLLESGGGLVQPGGSLRLSCAASGFTFSSYGMHWVRQAPGKGLEWVSSINYNGGYKSYADSVKGRFTISRDNSKNTLYLQMNSLRAEDTAVYYCARAATWHDTHLDYWGQGTLVTVSS VL: DIQMTQSPSSLSASVGDRVTITCRASQSIISYLNWYQQKPGKAPKLLIYAATSLASGVPSRFSGSGSGTDFTLTISSLQPEDFATYYCQQSYESPLTFGGGTKVEIK	OD	3.29

Okay, now this binder:
Can you look up the measured optical density of 372_D07 (antibody, V domains shown, Group II) VH: EVQLLESGGGLVQPGGSLRLSCAASGFTFSSYGMNWVRQAPGKGLEWVAGINYNGGYTSYADSVKGRFTISRDNSKNTLYLQMNSLRAEDTAVYYCARAATWHDTHLDYWGQGTLVTVSS VL: DIQMTQSPSSLSASVGDRVTITCRASQSILSYLNWYQQKPGKAPKLLIYAATSRASGVPSRFSGSGSGTDFTLTISSLQPEDFATYYCQQSYESPLTFGGGTKVEIK for me?
3.7

Data credit: patent US20210380703A1
